Listed below: EC50 values for each entry.
# measuredTarget: human APJ receptor (Homo sapiens (Human))
# Sequence (P35414 whole entry): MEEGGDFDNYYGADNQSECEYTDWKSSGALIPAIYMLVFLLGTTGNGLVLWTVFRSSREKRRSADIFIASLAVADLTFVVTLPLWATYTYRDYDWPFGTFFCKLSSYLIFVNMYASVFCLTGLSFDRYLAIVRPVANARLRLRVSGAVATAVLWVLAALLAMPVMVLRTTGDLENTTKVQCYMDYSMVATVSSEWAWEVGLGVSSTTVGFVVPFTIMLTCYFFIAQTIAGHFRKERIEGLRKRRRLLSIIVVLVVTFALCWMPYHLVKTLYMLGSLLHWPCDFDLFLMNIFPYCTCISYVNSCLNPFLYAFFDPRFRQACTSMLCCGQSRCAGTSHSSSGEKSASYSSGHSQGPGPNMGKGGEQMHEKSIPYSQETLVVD
# protocolSummary: Intracellular cAMP accumulation assay (APJ hcAMP, HTRF)
# Format: cell-based
# testConditions: human APJ, intracellular cAMP accumulation; read-out: Human APJ cAMP EC50 Potency range
# Procedure: Intracellular cAMP Accumulation Assay HEK293 cells stably expressing human APJ receptor were used to assess the activity of compounds. Cultured cells were detached and resuspended in the cAMP Homogeneous Time-Resolved Fluorescence (HTRF) assay buffer (Cisbio cat; #62AM4PEJ). […] The fluorescence emission ratio was measured using fluorometer. […] The biological activity of the exemplified compounds of this invention determined by the assay described above is shown at the end of each example.

Solved cases below.
CCCCc1nc(=O)c(S(=O)(=O)c2ccc(-c3nnc(C4CC4)o3)cc2)c(O)n1-c1c(OC)cccc1OC [Example 117] = 0.01 to 10 nM
CCCCc1nc(=O)c(S(=O)(=O)c2ccc(-c3ccncc3C)cc2)c(O)n1[C@H]1CCc2ccccc21 [Example 155] = 0.01 to 10 nM
CCCCc1nc(=O)c(S(=O)(=O)c2ccc(-c3ccccc3OC3CC3)cc2)c(O)n1-c1c(OC)cccc1OC [Example 29] = 0.01 to 10 nM
CCCCc1nc(=O)c(S(=O)(=O)c2ccc(-c3ccnc(F)c3C)cc2)c(O)n1C(C)c1cccnc1 (stereo not shown) [Example 203] = 0.01 to 10 nM
CCCCc1nc(=O)c(S(=O)(=O)c2ccc(F)cc2)c(O)n1-c1c(OC)cccc1OC [Example 4] = 0.01 to 10 nM
CCCCc1nc(=O)c(S(=O)(=O)c2ccc(-c3ccc(OC)nc3C)cc2)c(O)n1[C@H]1CCc2ccccc21 [Example 167] = 0.01 to 10 nM

# context switch: different compound, same EC50
Query CCCCc1nc(=O)c(S(=O)(=O)c2ccc(-c3cncc(F)c3)cc2)c(O)n1-c1c(OC)cccc1OC [Example 50] yields EC50 of 0.01 to 10 nM
